Where these numbers come from: the supplement of paper PMC11208160

Reported recombinant barcode read abundance (log10) values follow for various sequences
# METHOD: recombinant barcode read abundance after kanamycin selection (control-corrected) (log10(CPM+1)); higher = more efficient recombination; sequences stand for … in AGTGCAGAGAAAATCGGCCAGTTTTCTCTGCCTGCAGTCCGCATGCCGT…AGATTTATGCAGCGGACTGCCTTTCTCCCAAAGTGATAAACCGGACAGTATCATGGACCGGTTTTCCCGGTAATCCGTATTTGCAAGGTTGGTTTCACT; site = the 11-nt target;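 further: IS621 recombinase and bridge RNA in Escherichia coli cells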
Answer with a number only.

BIOSEQUENCE: CTGCGTGCTTGGGTTCTAACCTGTTGCCT (site CTGCGTGCTAG)
EXPERIMENTAL VALUE: 0.83
--
BIOSEQUENCE: TAGTTAGCTTGGGTTCTAACCTGTTGCCC (site TAGTTAGCTGG)
EXPERIMENTAL VALUE: 0.945
--
BIOSEQUENCE: GCAGCGACTTGGGTTCTAACCTGTTGCCT (site GCTGCGACTAG)
EXPERIMENTAL VALUE: 0.194
--
BIOSEQUENCE: CAATCCTCTTGGGTTCTAACCTGTTGCTA (site CAATCCTCTTA)
EXPERIMENTAL VALUE: 0.443
--
BIOSEQUENCE: GAGCGAGCTTGGGTTCTAACCTGTTGCTA (site GAGCGGACTTA)
EXPERIMENTAL VALUE: 0.267

Give the measured recombinant barcode read abundance (log10) of AGGGCGTCTTGGGTTCTAACCTGTTGCCG (site AGGGCATCTAG) . 0.0811
